Target or system Human alpha-thrombin (Homo sapiens, UniProt P00734); recorded quantity IC50.

The following molecules have reported results that may help.
CCn1cc(C(=O)n2nc3c(c2N)CCCC3)c2ccccc21 [Example 43] : > 100 µM
Nc1c2c(nn1C(=O)C1OCCc3ccccc31)CCCC2 (single isomer, unassigned) [Example 13] : 77 µM
Cc1cc2ccc(C(=O)n3nc4c(c3N)CCCC4)cc2o1 [Example 60] : 22 µM

Measured IC50 of Nc1c2c(nn1C(=O)[C@H]1CCCc3[nH]c(Cl)cc31)CC[C@H](O)C2 (single isomer, unassigned) [Example 127] : > 80 µM

Measured IC50 of Cc1cc2c([nH]1)CCCC2C(=O)n1nc2c(c1N)CCCC2 (centres unmarked) [Example 81] : > 50 µM

Reported IC50 ( CO[C@H]1CCc2nn(C(=O)[C@H]3CCNc4ccc(F)cc43)c(N)c2C1 (single isomer, unassigned) [Example 177] ) = > 100 µM

Field IC50 (entry Nc1c2c(nn1C(=O)c1cccc3[nH]c(Br)cc13)CCCC2 (single isomer, unassigned) [Example 62] ) reads 20 µM

Record Nc1c2c(nn1C(=O)[C@@H]1CCNc3ccccc31)CC[C@H](O)C2 (single isomer, unassigned) [Example 169] , field IC50: > 100 µM
